Attribution: ChEMBL document CHEMBL1134972

- Tested on: Rattus norvegicus
- TEST_DETAILS: Antiinflammatory activity by using Rat paw edema assay
- Type: functional
OBSERVATION_TYPE: ED50 (mg/kg)
Note: unit mg/kg is implicit; provide only the numeric part.

{"COMPOUND": "COc1ccc2c(c1)c(CC(=O)O)c(C)n2C(=O)c1ccc(Cl)cc1", "ED50 / mg/kg": 2}

// below: ED50 requested for another compound
Bench note: what ED50 did CC[C@@]1(C)OC(=O)C(OC(C)C)=C1c1ccc(S(C)(=O)=O)cc1 (single isomer, unassigned) show?
4.5

----------
Here the recorded half-life is given for each entry.
- TEST_DETAILS: Half-life in rat
- Format: ADME, organism-based
- CONDITION: in vivo

Guide cases for half-life, answers given:
{"COMPOUND": "CC[C@]1(C)OC(=O)C(OC(C)C)=C1c1ccc(S(C)(=O)=O)cc1", "half-life": "2 h"}
{"COMPOUND": "CC(C)OC1=C(c2ccc(S(C)(=O)=O)cc2)C(C)(C)OC1=O", "half-life": "7.1 h"}

// below: half-life requested for another compound
Bench note: what half-life did CC[C@@]1(C)OC(=O)C(OC(C)C)=C1c1ccc(S(C)(=O)=O)cc1 (single isomer, unassigned) show?
< 2 h
